Target: T1, recombinant C-terminally truncated RSV (A2 strain) F protein (RSV (A2 strain), UniProt P03420 26-524)
T1 construct: extracellular domain; also called truncated F protein; extracellular domain of the F protein from RSV A2
T1 sequence (P03420 26-109, chain 1 of 2): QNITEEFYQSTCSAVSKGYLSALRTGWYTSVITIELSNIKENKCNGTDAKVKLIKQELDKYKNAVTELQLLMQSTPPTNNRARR
T1 sequence (P03420 137-524, chain 2 of 2): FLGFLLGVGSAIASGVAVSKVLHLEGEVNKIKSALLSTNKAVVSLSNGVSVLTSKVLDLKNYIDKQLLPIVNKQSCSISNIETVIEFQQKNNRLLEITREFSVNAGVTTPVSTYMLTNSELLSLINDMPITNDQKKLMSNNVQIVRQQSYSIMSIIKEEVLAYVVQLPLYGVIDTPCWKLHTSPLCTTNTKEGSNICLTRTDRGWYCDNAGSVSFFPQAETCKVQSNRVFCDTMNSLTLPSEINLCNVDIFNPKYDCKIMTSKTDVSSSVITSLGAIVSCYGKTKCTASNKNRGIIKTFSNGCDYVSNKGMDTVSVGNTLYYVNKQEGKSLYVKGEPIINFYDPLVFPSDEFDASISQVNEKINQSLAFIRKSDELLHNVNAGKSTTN
Test: SPR (BIAcore), Fab over immobilised F
test.readout: koff (s⁻¹)
Lab book: enter the figure in s⁻¹, no units written.

Inquiry: GET /values?readout=koff&item= A13c4 Fab (Fab, V domains shown) VH: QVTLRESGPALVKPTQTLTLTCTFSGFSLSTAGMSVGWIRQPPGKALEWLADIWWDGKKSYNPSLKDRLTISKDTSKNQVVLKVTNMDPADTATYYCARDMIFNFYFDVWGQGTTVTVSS VL: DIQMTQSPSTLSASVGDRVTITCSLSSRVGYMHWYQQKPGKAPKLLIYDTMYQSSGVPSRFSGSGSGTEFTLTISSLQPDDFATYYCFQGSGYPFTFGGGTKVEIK
Reply text: 0.000112

Inquiry: GET /values?readout=koff&item= A12a6 Fab (Fab, V domains shown) VH: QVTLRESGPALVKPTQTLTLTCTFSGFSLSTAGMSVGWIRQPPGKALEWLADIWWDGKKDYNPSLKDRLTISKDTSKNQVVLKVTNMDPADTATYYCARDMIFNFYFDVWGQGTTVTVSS VL: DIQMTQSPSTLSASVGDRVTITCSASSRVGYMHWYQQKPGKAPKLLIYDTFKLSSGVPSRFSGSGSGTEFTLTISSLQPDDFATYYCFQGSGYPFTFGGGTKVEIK
Reply text: 0.000219

Inquiry: GET /values?readout=koff&item= P11d4 Fab (Fab, V domains shown) VH: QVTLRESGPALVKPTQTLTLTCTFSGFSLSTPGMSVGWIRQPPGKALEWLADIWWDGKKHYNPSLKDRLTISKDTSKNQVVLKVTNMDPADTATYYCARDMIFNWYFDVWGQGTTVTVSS VL: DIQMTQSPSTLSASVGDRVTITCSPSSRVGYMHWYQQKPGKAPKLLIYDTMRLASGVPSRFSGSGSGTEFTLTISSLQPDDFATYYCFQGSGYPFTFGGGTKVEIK
Reply text: 0.000389
